The origin of these recorded values is patent US9303045B2.

target_entity: 5HT3a receptor expressed in HEK-293T cells (Homo sapiens (Human), UniProt P46098)
Sequence (P46098 24-478): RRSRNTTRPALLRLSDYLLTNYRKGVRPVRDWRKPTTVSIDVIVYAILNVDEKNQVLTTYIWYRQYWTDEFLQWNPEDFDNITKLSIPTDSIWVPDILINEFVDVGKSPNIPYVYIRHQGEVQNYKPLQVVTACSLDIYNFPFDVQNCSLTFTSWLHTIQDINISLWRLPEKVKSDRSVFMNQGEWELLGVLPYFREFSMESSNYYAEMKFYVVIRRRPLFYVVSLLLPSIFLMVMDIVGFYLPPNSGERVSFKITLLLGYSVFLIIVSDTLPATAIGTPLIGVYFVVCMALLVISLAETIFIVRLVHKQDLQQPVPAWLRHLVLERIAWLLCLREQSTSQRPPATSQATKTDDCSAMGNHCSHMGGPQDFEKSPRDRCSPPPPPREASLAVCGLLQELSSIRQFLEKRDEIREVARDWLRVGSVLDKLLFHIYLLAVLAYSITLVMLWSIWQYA
measurement_notes: Inhibition of Ca flux activity of 5HT3 in vitro assay
settings: calcium flux, 5HT 216 nM, approximate values
Where a name gives a salt, the structure may show the parent alone.
recorded_metric: pIC50
Kindly note that pIC50 refers to -log10 of the concentration in mol/L and answer with the value alone.

I have this compound here, CN1C2COCC1CC(NC(=O)c1cn(CC(F)F)c3ncccc13)C2 (stereo not shown) , and I need its recorded pIC50. 8.84

Now this one: CN1C2COCC1CC(OC(=O)c1cn(-c3ccc(O)nn3)c3ccccc13)C2 (stereo not shown) [Example 169, trifluoroacetic acid salt] 9.22

Now this one: CS(=O)(=O)n1cc(C(=O)O[C@H]2C[C@H]3COC[C@@H](C2)N3)c2cc(F)ccc21 8.64

Now this one: CN1C2COCC1CC(NC(=O)c1cn(-c3cncnc3)c3ccccc13)C2 (stereo not shown) 9.41

###

target_entity: 5HT3a receptor expressed in HEK-293T cells (Homo sapiens (Human))
measurement_notes: Inhibition of Ca flux activity of 5HT3 in vitro assay
settings: calcium flux, 5HT 216 nM, approximate values
pIC50: −log10 of the molar value. Counter-ions that a name gives are not always drawn.
Response key: YES means pIC50 >= 9; NO means pIC50 < 9.

compound	category_label
CN1[C@@H]2COC[C@H]1CC(OC(=O)c1cn(CC(F)F)c3ccc(F)cc13)C2 (some centres unmarked)	YES

# check: pIC50 of N#Cc1ccc(-n2cc(C(=O)O[C@H]3C[C@H]4COC[C@@H](C3)N4)c3ccccc32)cc1 [Example 180, trifluoroacetic acid salt] is greater than or equal to 9 NO

Now this one: O=C(NC1C[C@H]2COC[C@@H](C1)N2)c1cn(CC(F)F)c2ncc(F)cc12 (some centres unmarked) NO

###

target_entity: 5HT3a receptor expressed in HEK-293T cells (Homo sapiens (Human))
measurement_notes: Inhibition of Ca flux activity of 5HT3 in vitro assay
settings: calcium flux, 5HT 216 nM, approximate values
Structures can show the parent of a compound that is named as a salt.
Entries and their IC50 values follow.
Answer with a number only, understood to be in nM.

Previously resolved entries follow.
compound	recorded_metric	reported_value
CN1C2COCC1CC(NC(=O)c1cn(-c3ccns3)c3ccccc13)C2 (stereo not drawn) [Example 158, trifluoroacetic acid salt]	IC50	1.36
CN1[C@@H]2COC[C@H]1CC(NC(=O)c1cn(CC(F)F)c3ccc(F)cc13)C2 (stereo partly drawn) [Example 113]	IC50	0.23
CN1[C@@H]2CCC[C@H]1CC(OC(=O)c1cn(CC(F)(F)F)c3ncccc13)C2 (stereo partly drawn)	IC50	8.2
CN1[C@@H]2CCC[C@H]1CC(NC(=O)c1cn(CC(F)F)c3ncccc13)C2 (stereo partly drawn)	IC50	10.5
O=C(OC1C[C@H]2COC[C@@H](C1)N2)c1cn(S(=O)(=O)C2CC2)c2ccccc12 (stereo partly drawn)	IC50	1.99

I have this compound here, CCS(=O)(=O)n1cc(C(=O)OC2C[C@H]3COC[C@@H](C2)N3)c2ccccc21 (stereo partly drawn) , and I need its recorded IC50. 1.5

Now this one: CN1[C@@H]2CCC[C@H]1CC(OC(=O)c1cn(CC(F)F)c3ccc(F)cc13)C2 (stereo partly drawn) 0.44

Now this one: CN1[C@@H]2CC[C@H]1CC(NC(=O)c1cn(S(C)(=O)=O)c3ccccc13)C2 (stereo partly drawn) 0.42

Now this one: CN1C2COCC1CC(NC(=O)c1cn(-c3cncs3)c3ncc(F)cc13)C2 (stereo not drawn) [Example 164, trifluoroacetic acid salt] 1.18

Now this one: O=C(O[C@H]1C[C@H]2COC[C@@H](C1)N2)c1cn(-c2cccnn2)c2ccccc12 [Example 136, trifluoroacetic acid salt] 0.914

Now this one: CN1[C@@H]2COC[C@H]1CC(NC(=O)c1cn(-c3ncccn3)c3ccccc13)C2 (stereo partly drawn) [Example 107] 1.1

Now this one: CN(C(=O)c1cn(-c2cnsc2)c2ccccc12)[C@H]1C[C@H]2COC[C@@H](C1)N2 3.06

Now this one: CN1[C@@H]2CC[C@H]1CC(OC(=O)c1c(Cl)n(CC(F)(F)F)c3ccccc13)C2 (stereo partly drawn) 1.87

Now this one: CN1C2COCC1CC(NC(=O)c1cn(-c3nccs3)c3ncc(F)cc13)C2 (stereo not drawn) [Example 162, trifluoroacetic acid salt] 1.81

Now this one: CC(C)CS(=O)(=O)n1cc(C(=O)OC2C[C@H]3COC[C@@H](C2)N3)c2ccccc21 (stereo partly drawn) 11.7

Now this one: CN1[C@@H]2CC[C@H]1CC(NC(=O)c1cn(CC(F)F)c3ncccc13)C2 (stereo partly drawn) 1.22

Now this one: CN1[C@@H]2COC[C@H]1C[C@@H](NC(=O)c1cn(-c3cnsc3)c3ccccc13)C2 [Example 144, trifluoroacetic acid salt] 0.61

Now this one: N#Cc1ccccc1-n1cc(C(=O)O[C@H]2C[C@H]3COC[C@@H](C2)N3)c2ccccc21 [Example 171, trifluoroacetic acid salt] 1.11

Now this one: CC(C)S(=O)(=O)n1cc(C(=O)O[C@H]2C[C@H]3COC[C@@H](C2)N3)c2ccccc21 1.93

Now this one: Cn1ccc(-n2cc(C(=O)O[C@H]3C[C@H]4COC[C@@H](C3)N4)c3ccccc32)cc1=O [Example 168, trifluoroacetic acid salt] 1.17

Now this one: CN1[C@@H]2COC[C@H]1C[C@@H](NC(=O)c1cn(C(F)(F)C(F)F)c3ncc(F)cc13)C2 1.05
